Molecular target: CNBP (Homo sapiens, UniProt P62633 1-177)
Sequence (P62633 whole entry): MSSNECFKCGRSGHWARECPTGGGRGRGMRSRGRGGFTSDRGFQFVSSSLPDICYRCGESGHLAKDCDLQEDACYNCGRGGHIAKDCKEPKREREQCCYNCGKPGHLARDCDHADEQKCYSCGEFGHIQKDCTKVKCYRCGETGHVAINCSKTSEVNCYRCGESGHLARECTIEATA
Assay: EMSA; 100 mM K+; apparent Kd, SEM, n=3; EMSA: 20 mM HEPES pH 8.0, 10 mM MgCl2, 1 mM EDTA, 0.5 ug/ul heparin, 1 mM DTT, 1 ug/ul BSA, 10% glycerol, 100 mM KCl or LiCl, probe 0.75 uM, 30 min at 37 C; CNBP diluted in 50 mM Tris-HCl pH 7.5, 300 mM NaCl, 1 mM DTT, 5 mM imidazole, 0.1 mM ZnCl2
Details: protein: recombinant; tags: tag-free (from pET-32a-TEV-CNBP, tag removed); label: none (SYBR Gold stain); parallel G4
Parameter Kd: see the listing below.
PROPERTY_LABEL: Kd (nM)

[
  {
    "BINDER": "GTGTATGTGGGGGGGGGGGGCGGGTGGTAG (structured_DNA) [Hs2160 folded as G4 (K+)]",
    "PROPERTY_LABEL": "Kd",
    "VALUE_OBSERVED": 431
  },
  {
    "BINDER": "TGGGGTGGGGTGAGGTGGGGAAGAGGGAAC (structured_DNA) [Hs791 folded as G4 (K+)]",
    "PROPERTY_LABEL": "Kd",
    "VALUE_OBSERVED": 271
  }
]
